Each recorded value in this set is attributed to patent US8258158B2.

Biological target: human HSL (Homo sapiens)
Construct: overlapping PCR to generate a full length human HSL ORF with a 3′-His6 tag; His6 (C)
Sequence (Q05469 1-1076): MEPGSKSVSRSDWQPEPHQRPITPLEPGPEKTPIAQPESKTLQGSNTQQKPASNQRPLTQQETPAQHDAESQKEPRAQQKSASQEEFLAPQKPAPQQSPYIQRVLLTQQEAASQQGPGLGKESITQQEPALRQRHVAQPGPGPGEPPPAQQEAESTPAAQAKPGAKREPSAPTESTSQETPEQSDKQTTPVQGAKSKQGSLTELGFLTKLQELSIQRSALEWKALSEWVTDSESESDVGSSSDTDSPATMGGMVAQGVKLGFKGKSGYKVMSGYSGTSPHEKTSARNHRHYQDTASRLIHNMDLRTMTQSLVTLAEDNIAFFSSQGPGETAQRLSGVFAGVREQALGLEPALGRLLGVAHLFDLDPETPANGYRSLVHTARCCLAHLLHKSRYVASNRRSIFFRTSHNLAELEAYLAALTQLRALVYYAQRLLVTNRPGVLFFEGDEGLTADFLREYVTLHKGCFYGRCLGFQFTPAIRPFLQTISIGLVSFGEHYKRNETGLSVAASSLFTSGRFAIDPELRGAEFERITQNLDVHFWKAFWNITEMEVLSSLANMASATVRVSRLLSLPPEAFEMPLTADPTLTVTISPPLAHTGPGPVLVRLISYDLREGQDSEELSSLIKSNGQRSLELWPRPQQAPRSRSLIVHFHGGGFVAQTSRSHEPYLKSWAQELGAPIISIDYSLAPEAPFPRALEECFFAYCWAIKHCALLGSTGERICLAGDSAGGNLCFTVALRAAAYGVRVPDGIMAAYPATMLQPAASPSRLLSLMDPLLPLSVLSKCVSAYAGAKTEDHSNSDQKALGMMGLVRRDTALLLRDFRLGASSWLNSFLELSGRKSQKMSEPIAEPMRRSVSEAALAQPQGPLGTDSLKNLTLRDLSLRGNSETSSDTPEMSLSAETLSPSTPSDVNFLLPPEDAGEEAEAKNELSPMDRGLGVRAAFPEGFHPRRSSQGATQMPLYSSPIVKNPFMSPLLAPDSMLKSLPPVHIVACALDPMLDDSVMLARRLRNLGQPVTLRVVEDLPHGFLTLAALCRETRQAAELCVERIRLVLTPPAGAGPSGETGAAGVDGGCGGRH
Assay: Human hormone-sensitive lipase (HSL) enzyme inhibition assay (colorimetric, DMPT substrate)
Settings: human full length HSL-His6; 2,3-dimercapto-1-propanol tributyrate substrate; 37° C., 20 minutes; read-out: HSL hum IC50
# maps each entry to its IC50
The response must be a number in nM with no trailing unit.

INSERT INTO results (molecule, recorded_result) VALUES
  ('CC(C)Oc1ccc(NC(=O)C2CCN(S(=O)(=O)c3ccccc3Cl)CC2)cc1', 40),
  ('COC(COc1ccc(NC(=O)C2CCN(S(=O)(=O)c3ccc(C)cc3)CC2)cc1)C(F)(F)F (racemic)', 660),
  ('CC(C)c1ccc(NC(=O)C2CCN(S(=O)(=O)c3ccccc3)CC2)cn1', 240),
  ('COCC(Oc1ccc(NC(=O)C2CCN(S(=O)(=O)c3ccc(C)cc3)CC2)cc1)C(F)(F)F (racemic)', 80),
  ('O=C(Nc1ccc(OC(F)(F)F)cc1)C1CCN(S(=O)(=O)c2ccccc2)CC1', 40),
  ('COCC[C@@H](Oc1ccc(NC(=O)C2CCN(S(=O)(=O)c3ccc(C)cc3)CC2)cc1)C(F)(F)F', 290),
  ('O=C(NCC1(c2ccc(Cl)cc2)CC1)C1CCN(S(=O)(=O)c2ccccc2)CC1', 530),
  ('O=C(Nc1ccc(OC(F)(F)F)cc1)C1(CO)CCN(S(=O)(=O)c2ccccc2Cl)CC1', 660),
  ('COCCCC1(C(=O)Nc2ccc(OC(C)C)cc2)CCN(S(=O)(=O)c2ccccc2)CC1', 920),
  ('Cc1ccc(S(=O)(=O)N2CC[C@H](C(=O)Nc3ccc(OC(F)(F)F)cc3)C[C@H]2CO)cc1 (racemic)', 40);

Identify measured IC50 associated with "CC1(C(=O)Nc2ccc(OC(F)(F)F)cc2)CCN(S(=O)(=O)c2ccccc2)CC1"
250

Identify measured IC50 associated with CC(Oc1ccc(NC(=O)C2CCN(C(=O)c3ccccc3Cl)CC2)cc1)C(F)(F)F (racemic)
620

Identify measured IC50 associated with "Cc1ccc(S(=O)(=O)N2CCC(C(=O)Nc3ccc4c(c3)CCO4)CC2)cc1"
770

Identify measured IC50 associated with "Cc1ccc(S(=O)(=O)N2CCC(C(=O)Nc3ccc(OC(C)C)cc3)CC2)cc1"
70

Identify measured IC50 associated with Cc1ccc(S(=O)(=O)N2CCC(C)(C(=O)Nc3ccc(OC(C)C(F)(F)F)cc3)CC2)cc1 (racemic)
810

Identify measured IC50 associated with Cc1ccc(S(=O)(=O)N2CCC(C(=O)N(C)c3ccc(OC(C)C(F)(F)F)cc3)CC2)cc1 (racemic)
120
